Tested on: 786-0 renal
Test: NCI tumour cell line growth inhibition, 48 h; in the data active = GI50 below about 0.43 µM; inactive = the rest
Form entry, call: pick from active, inactive

| compound | target.of.assay | category.label |
| --- | --- | --- |
| COc1cc(OCc2cccc(-c3ccc(C(O)c4nccs4)cc3)c2C)cc(OC)c1C=O (centres undefined) | 786-0 renal | inactive |
| CC(=O)OC1COC(Oc2c(C)c3c4c(c2O)[C@@H](C)CC[C@@H]4[C@@H](C)C[C@H]3C=C(C)C)C(O)C1OC(C)=O (some centres undefined) | 786-0 renal | inactive |
| Cc1cc(C)c2c(n1)sc1c(Nc3ccc(Cl)cc3)ncnc12 | 786-0 renal | active |
| c1ccc(-c2nnc(-c3ccccn3)s2)nc1 | 786-0 renal | inactive |
| C#CCOc1cccc(-c2ncc3cc(NC(=O)CCl)ccc3n2)c1 | 786-0 renal | inactive |

Turning to the following compound.
Give the logged outcome of this assay for the following compound: `COc1cccc(F)c1C(=O)c1cnc(NC2CCN(S(C)(=O)=O)CC2)nc1N`
inactive
